Measured values drawn from patent US20260109763A1 for this set.

- EXPERIMENTAL SYSTEM: T1, cynomolgus monkey PILRA extracellular domain (recombinant) (cynomolgus monkey)
- T1 construct: also called cynoPILRA; Cyno PILRA
- T1 sequence (chain, as listed by the source limits assumed): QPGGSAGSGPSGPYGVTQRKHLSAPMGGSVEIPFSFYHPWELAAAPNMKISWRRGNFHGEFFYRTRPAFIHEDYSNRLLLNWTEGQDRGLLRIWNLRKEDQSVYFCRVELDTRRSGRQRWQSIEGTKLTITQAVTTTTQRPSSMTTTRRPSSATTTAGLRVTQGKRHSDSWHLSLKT
- ASSAY EXPLANATION: SPR, Biacore 8K; antibody captured via anti-human Fab, recombinant ECD injected; 1:1 fit;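 further: CM5 sensor chip, ECD analyte in threefold dilution series at 30 µL/min, 3 min association and 10 min dissociation, kon and koff fitted simultaneously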
OUTCOME MEASURE: pKd
Value format note: pKd is -log10 of concentration (mol/L); just state the number.

Please review the following examples before continuing.
{"BINDER": "Anti-PILRA antibody clone 7 (antibody, V domains shown) VH: EVQLQQSGPELQRPGASVKLSCKASGYTFTEYYMYWVKQRPKQGLELMGRIDPEDGGTDYVEKFKNKATLTADTSSNTAYMQLSSLTSEDTATYFCASTIRGTVFVYWGQGTLVTVSS VL: DIQMTQSPASLSASLGETVTIECRPSEDIYNGLAWYQQKPGESPQLLIYNANSLHTGVPSRFSGSGSGTQYSLKINSLQSEDVASYFCQQYYDYPLTFGSGTKLEIK", "pKd": 8.32}
{"BINDER": "Anti-PILRA antibody clone 1 (antibody, V domains shown) VH: EVQLVESGGGLVQPGRSLRLSCAVSGFTFDDYAMHWVRQAPGKGLEWVSGFSWNSGSIGYPDSVKGRFTISRDNAKNSLYLQMNSLRAEDTAFYYCAKDKSISAAGRFDYWGQGTLVTVSS VL: DIQMTQSPSSLSASVGDRVTITCQASRRINNYLNWYQQKPGKAPKLLIYDASNLETGVPSRFTGSGSGTDFTLTISSLQPEDIATYYCQQYDNLPLTFGGGTKIKIK", "pKd": 9.04}
{"BINDER": "Anti-PILRA antibody clone 8 (antibody, V domains shown) VH: QVQLVQSGAEVKKPGASVKVSCKASGYTFTGHYMHWVRQAPGQGLEWMGWINPNSGDTDYAQKFQGRVTMTRDTSISTAYMDLNRLRSDDTAVFYCAREGLDGDPFDYWGQGTLVTVSS VL: EIMLTQTPLSSPVTLGQPASISCRSSQSLVHSDGNTYLSWLQQRPGQPPRLLIYNISNRFSGVPDRFSGRGAGTDFTLKISRVEAEDVGVYYCIQTTQFSTFGQGTKLEIK", "pKd": 7.23}
{"BINDER": "Anti-PILRA antibody clone 5 (antibody, human IgG1, kappa, L234A L235A, V domains shown, also called Ab; Clone 5; Ab.5) VH: QVQLVQSGAEVKKPGASVRVSCKASGYTFIGFYIHWVRQAPGQGLEWMGWINPESGDTTYAQKFQGRVTMTTDTSINTAYMDLNRLRSDDSAVYFCARGNWNFPDTFDFWGQGTMVIVSS VL: DIQMTQSPSSLSASVGDRVTITCRSSQSISIYLNWHQQIPGKAPKLLIYVASSLQSGIPSRFSGRGSGTEFTLTISSLQPEDFATYYCQQSYSAPFTFGPGTKVDIKR", "pKd": 7.72}
{"BINDER": "Anti-PILRA antibody clone 2 (antibody, human IgG1, kappa, L234A L235A, V domains shown, also called Ab; Clone 2; Ab.2) VH: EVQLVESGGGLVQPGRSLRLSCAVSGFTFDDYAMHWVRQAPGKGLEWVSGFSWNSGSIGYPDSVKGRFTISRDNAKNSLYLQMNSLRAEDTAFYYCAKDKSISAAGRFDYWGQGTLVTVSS VL: DIQMTQSPSSLSASVGDRVTITCQASRRINNYLNWYQQKPGKAPKLLIYDASNLETGVPSRFTGSGSGTDFTLTISSLQPEDIATYYCQQYDNLPLTFGGGTKVEIKR", "pKd": 8.77}

Query binder follows.
[ask] What pKd value was documented for this binder, Anti-PILRA antibody clone 11 (antibody, V domains shown) VH: EVKLVESGGGLVRPGGSQKLSCAVSGFAFSGYDMSWVRQTPEKRLEWVATISNGGRHTYYPDSVKGRFTISRDNARNTLYLQMSSLRSEDTALYYCARQKTWDVHAMDYWGQGTSVTVSS VL: QLVLTQSSSASFSLGASAKLTCTLSSQHSTYTIEWYQQQPLKPPKYVMELKKDGSHSTGDGIPDRFSGSSSGADRYLSISNIQPEDEAIYICGVGDTIKEQFVYVFGGGTKVTVL ?
[reply] 6.96
